study.system: Glucose-6-phosphate dehydrogenase (Bos taurus)
protocol: Percent inhibition against bovine adrenal G6PDH (glucose-6-phosphate dehydrogenase) at a concentration of 10 e-5 M
Examples of compounds with documented inhibition follow.
Record the value in %, omitting the unit from your answer.

Example cases with answers are listed next.
>  <compound>
C#CCS[C@H]1CC[C@@]2(C)C(=CCC3C2CC[C@]2(C)C(=O)CCC32)C1 (stereo not given in full)

>  <study.system>
Glucose-6-phosphate dehydrogenase (Bos taurus)

>  <inhibition (%)>
47

$$$$
>  <compound>
C=C=CS(=O)(=O)[C@H]1CC[C@@]2(C)C(=CCC3C2CC[C@]2(C)C(=O)CCC32)C1 (stereo not given in full)

>  <study.system>
Glucose-6-phosphate dehydrogenase (Bos taurus)

>  <inhibition (%)>
15

$$$$

// switching to the query compound
So what does the record say about inhibition for C#CCS(=O)(=O)[C@H]1CC[C@@]2(C)C(=CCC3C2CC[C@]2(C)C(=O)CCC32)C1 (stereo not given in full) ?
20
